Where do the numbers come from? From patent US20180171001A1.

assay system: Env of MuLV
procedure text: cell-based or functional assay
quantity measured: neutralization IC50

Incoming: Please look at this binder and report its neutralization IC50: 8ANC3484 (antibody, V domains shown) VH: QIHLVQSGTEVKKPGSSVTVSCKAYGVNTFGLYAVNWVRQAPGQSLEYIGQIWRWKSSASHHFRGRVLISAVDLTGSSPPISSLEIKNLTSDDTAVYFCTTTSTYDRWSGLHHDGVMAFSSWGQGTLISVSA VL: DIQMTQSPSTLSASIGDTVRISCRASQSITGNWVAWYQQRPGKAPRLLIYRGAALLGGVPSRFRGSAAGTDFTLTIGNLQAEDFGTFYCQQYDTYPGTFGQGTKVEVKR
Outgoing: > 30 µg/mL

Incoming: Complete the entry with neutralization IC50 for γ22κ18 (antibody, V domains shown) VH: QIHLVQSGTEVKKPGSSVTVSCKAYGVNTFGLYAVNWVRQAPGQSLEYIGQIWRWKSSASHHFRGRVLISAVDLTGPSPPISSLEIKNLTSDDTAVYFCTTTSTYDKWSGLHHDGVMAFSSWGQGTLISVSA VL: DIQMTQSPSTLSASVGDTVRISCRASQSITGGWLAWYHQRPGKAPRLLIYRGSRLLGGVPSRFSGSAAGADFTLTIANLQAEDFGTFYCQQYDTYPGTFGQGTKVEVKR
Outgoing: > 30 µg/mL

Incoming: Give the value of neutralization IC50 reported for the following: γ46κ61 (antibody, V domains shown) VH: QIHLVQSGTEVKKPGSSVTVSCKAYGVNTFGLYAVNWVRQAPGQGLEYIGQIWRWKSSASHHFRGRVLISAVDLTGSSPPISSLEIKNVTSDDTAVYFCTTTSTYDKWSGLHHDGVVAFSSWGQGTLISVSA VL: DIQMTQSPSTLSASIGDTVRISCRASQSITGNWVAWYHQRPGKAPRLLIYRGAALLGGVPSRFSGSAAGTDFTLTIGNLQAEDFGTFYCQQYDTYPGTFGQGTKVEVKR
Outgoing: > 15 µg/mL
